- Test system: MS2 coat protein
- Test Details: apparent KD of MS2 coat protein; designed switch direction (-1 OFF switch, 1 ON switch): 1; higher = weaker reporter binding
- Assay Conditions: Eterna round: R95; input ligand: FMN 200 uM
Readout Label: apparent KD of MS2 coat protein (nM)
// return numeric value only (unit: nM, not printed)

Task: Could you share which apparent KD of MS2 coat protein value was measured for CAAAAUUAGUAGGAUAGGUACCCAGGAUGACAUGAGGAUCACCCAUGUAAGAGCUUUUUGCUCGUCAUUAACAGUUG [JR_SHM208a_Sub016] (puzzle: Sensor for hsa-mir-208a) ?
Output: 55.7

Task: // query apparent KD of MS2 coat protein value for entry UCUUGGUUUUUGCUCGUUUUUUGUGUUGAACAUGAGGAUCACCCAUGUAUUGUACGGUCCGAUUUAAUAAUGGUCCG [JMF 22] (puzzle: Sensor for hsa-mir-208a)
Output: 23.5

Task: Recorded apparent KD of MS2 coat protein of CGUCCAGCCUGAGCUGGACAAAAGCAUGUACAUGAGGAUCACCCAUGUUCAUGUACAAGCUUUUUGCUCGUCUUAGU [salish99_208a_r3_073] (puzzle: Sensor for hsa-mir-208a) , please.
Output: 557
